assay: activity coefficient (dimensionless); of the first substance listed, at infinite dilution; xn = mol fraction of the nth substance listed; settings: 332.85 K; 101 kPa; Liquid; Chromatography; x1 = 0
Task for the reader: assign each of the following compounds its reported activity coefficient.
# print the numeric value only

Sure, the documented activity coefficient for CCN(CC)CC [triethylamine] + CCCCCC[n+]1ccn(C)c1.FC(F)(F)C(F)(F)[P-](F)(F)(F)(C(F)(F)C(F)(F)F)C(F)(F)C(F)(F)F is 1.96

Sure, the documented activity coefficient for OCC(F)(F)F [2,2,2-trifluoroethanol] + CCCCCC[n+]1ccn(C)c1.FC(F)(F)C(F)(F)[P-](F)(F)(F)(C(F)(F)C(F)(F)F)C(F)(F)C(F)(F)F is 0.891

Sure, the documented activity coefficient for CO [methanol] + CCCCCC[n+]1ccn(C)c1.FC(F)(F)C(F)(F)[P-](F)(F)(F)(C(F)(F)C(F)(F)F)C(F)(F)C(F)(F)F is 2.01

Sure, the documented activity coefficient for CCCO [propan-1-ol] + CCCCCC[n+]1ccn(C)c1.FC(F)(F)C(F)(F)[P-](F)(F)(F)(C(F)(F)C(F)(F)F)C(F)(F)C(F)(F)F is 1.96
